Provenance of the data: paper PMC3032553

Biological target: LapD^dual (Pseudomonas fluorescens, UniProt Q3KK31, E262A)
Construct: cytoplasmic S helix-GGDEF-EAL dual domain module, residues 220-648, lacks HAMP; purified; apo monomer, dimerizes with c-di-GMP
Sequence (Q3KK31 220-648, stated change not applied): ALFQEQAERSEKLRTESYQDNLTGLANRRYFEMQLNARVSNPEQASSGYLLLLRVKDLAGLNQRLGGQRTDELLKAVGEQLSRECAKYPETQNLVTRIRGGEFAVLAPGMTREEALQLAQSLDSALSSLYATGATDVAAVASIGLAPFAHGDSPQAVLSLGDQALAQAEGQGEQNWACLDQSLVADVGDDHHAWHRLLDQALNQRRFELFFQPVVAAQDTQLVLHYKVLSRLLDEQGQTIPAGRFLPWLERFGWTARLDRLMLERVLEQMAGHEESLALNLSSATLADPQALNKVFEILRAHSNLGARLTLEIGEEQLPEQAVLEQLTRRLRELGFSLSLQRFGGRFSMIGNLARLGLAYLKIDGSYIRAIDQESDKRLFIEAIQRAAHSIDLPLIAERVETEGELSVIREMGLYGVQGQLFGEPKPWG
Experiment: radioligand filter binding, one-site fit
Conditions: read-out: Apparent K d
Excerpt: radioligand filter binding, one-site fit on LapD^dual

# MOLECULE, Kd / µM
measured = [
    ("Nc1nc2c(ncn2[C@@H]2O[C@@H]3CO[P@](=O)(O)O[C@H]4[C@@H](O)[C@H](n5cnc6c(=O)[nH]c(N)nc65)O[C@@H]4CO[P@](=O)(O)O[C@H]3[C@H]2O)c(=O)[nH]1 [c-di-GMP]", 15.3),
]

====

molecular target: LapD^EAL (Pseudomonas fluorescens, UniProt Q3KK31, A602E); construct: isolated degenerate EAL domain, residues 399-648; purified; dimer with c-di-GMP; assay: radioligand filter binding, one-site fit; conditions: read-out: Apparent K d
pKd: −log10 of the molar value.

# CHEMICAL_STRING, pKd
rows = [
    ("Nc1nc2c(ncn2[C@@H]2O[C@@H]3CO[P@](=O)(O)O[C@H]4[C@@H](O)[C@H](n5cnc6c(=O)[nH]c(N)nc65)O[C@@H]4CO[P@](=O)(O)O[C@H]3[C@H]2O)c(=O)[nH]1", 4.44),
]

====

biological target: LapD^dual (Pseudomonas fluorescens, UniProt Q3KK31, A602E); construct: cytoplasmic S helix-GGDEF-EAL dual domain module, residues 220-648, lacks HAMP; purified; apo monomer, dimerizes with c-di-GMP; assay: radioligand filter binding, one-site fit; details: read-out: Apparent K d
Sequence (Q3KK31 220-648, stated change not applied): as above
RESULT_TYPE: Kd

# CHEMICAL_STRING, SYSTEM_UNDER_TEST, REPORTED
data = [
    ("Nc1nc2c(ncn2[C@@H]2O[C@@H]3CO[P@](=O)(O)O[C@H]4[C@@H](O)[C@H](n5cnc6c(=O)[nH]c(N)nc65)O[C@@H]4CO[P@](=O)(O)O[C@H]3[C@H]2O)c(=O)[nH]1", "LapD^dual (Pseudomonas fluorescens, UniProt Q3KK31, A602E)", "> 1000 µM"),
]

====

Biological target: LapD^dual (Pseudomonas fluorescens, UniProt Q3KK31, S229D)
Construct: cytoplasmic S helix-GGDEF-EAL dual domain module, residues 220-648, lacks HAMP; purified; apo monomer, dimerizes with c-di-GMP
Sequence (Q3KK31 220-648, stated change not applied): as above
Assay: radioligand filter binding, one-site fit
Conditions: read-out: Apparent K d
Description: radioligand filter binding, one-site fit on LapD^dual

# COMPOUND, SYSTEM_UNDER_TEST, Kd
rows = [
    ("Nc1nc2c(ncn2[C@@H]2O[C@@H]3CO[P@](=O)(O)O[C@H]4[C@@H](O)[C@H](n5cnc6c(=O)[nH]c(N)nc65)O[C@@H]4CO[P@](=O)(O)O[C@H]3[C@H]2O)c(=O)[nH]1 [c-di-GMP]", "LapD^dual (Pseudomonas fluorescens, UniProt Q3KK31, S229D)", "15.1 µM"),
]

====

target: LapD^dual (Pseudomonas fluorescens); construct: cytoplasmic S helix-GGDEF-EAL dual domain module, residues 220-648, lacks HAMP; purified; apo monomer, dimerizes with c-di-GMP; experiment: radioligand filter binding, one-site fit; details: read-out: Apparent K d
pKd: −log10 of the molar value.
RESULT_TYPE: pKd

# MOLECULE, REPORTED
measured = [
    ("Nc1nc2c(ncn2[C@@H]2O[C@@H]3CO[P@](=O)(O)O[C@H]4[C@@H](O)[C@H](n5cnc6c(=O)[nH]c(N)nc65)O[C@@H]4CO[P@](=O)(O)O[C@H]3[C@H]2O)c(=O)[nH]1 [c-di-GMP]", 4.57),
]
